system: NK-92 (IL-2 2.5 ng/mL); assay: percent inhibition of viability; higher = more inhibition; conditions: 72 h; 1000 nM;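 further: normalised to DMSO-only wells as negative and benzethonium chloride as positive control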
# percent inhibition of viability per record follows
result_type: percent inhibition of viability (%)

{"molecule": "S=c1[nH]cnc2nc[nH]c12 [Mercaptopurine] (max concentration tested 10000 nM)", "result_type": "percent inhibition of viability", "readout_number": 38.5}
{"molecule": "CN(C)C(=O)c1cc2cnc(Nc3ccc(N4CCNCC4)cn3)nc2n1C1CCCC1 [NVP-LEE011] (max concentration tested 10000 nM)", "result_type": "percent inhibition of viability", "readout_number": 15.8}
{"molecule": "O=C(O)CC1CC(c2ccccc2)=NO1 (centres undefined) [VGX-1027] (max concentration tested 10000 nM)", "result_type": "percent inhibition of viability", "readout_number": 11.7}
{"molecule": "O=C(Nc1cccc(Cl)c1)Nc1ncc(CCNc2ncnc3ccsc23)s1 [SNS-314] (max concentration tested 1000 nM)", "result_type": "percent inhibition of viability", "readout_number": 83.4}

====

system: DERL-7 (IL-2 2.5 ng/mL); test: percent inhibition of viability; higher = more inhibition; conditions: 72 h; 100 nM
result_type: percent inhibition of viability (%)

{"compound": "CC(=O)c1c(C)c2cnc(Nc3ccc(N4CCNCC4)cn3)nc2n(C2CCCC2)c1=O [Palbociclib] (max concentration tested 10000 nM)", "readout_number": 8.47}
{"compound": "Cc1c2oc3c(C)ccc(C(=O)N[C@@H]4C(=O)N[C@H](C(C)C)C(=O)N5CCC[C@H]5C(=O)N(C)CC(=O)N(C)[C@@H](C(C)C)C(=O)O[C@@H]4C)c3nc-2c(C(=O)N[C@@H]2C(=O)N[C@H](C(C)C)C(=O)N3CCC[C@H]3C(=O)N(C)CC(=O)N(C)[C@@H](C(C)C)C(=O)O[C@@H]2C)c(N)c1=O [Dactinomycin] (max concentration tested 1000 nM)", "readout_number": 101}
{"compound": "CCN1CCN(c2ccc(Nc3cc(N(C)C(=O)Nc4c(Cl)c(OC)cc(OC)c4Cl)ncn3)cc2)CC1 [NVP-BGJ398] (max concentration tested 1000 nM)", "readout_number": 4.05}
{"compound": "O=C(/C=C/c1cccnc1)NCCCCC1CCN(C(=O)c2ccccc2)CC1 [Daporinad] (max concentration tested 1000 nM)", "readout_number": 99.8}
{"compound": "O=C(O)c1ccc(Nc2ncc3c(n2)-c2ccc(Cl)cc2C(c2c(F)cccc2F)=NC3)cc1 [MLN-8054] (max concentration tested 10000 nM)", "readout_number": -2.98}

====

system: normal primary NK cells, pool 1 (3 donors) (IL-2 2.5 ng/mL); assay: percent inhibition of viability; higher = more inhibition; conditions: 72 h; 10 nM
Parameter percent inhibition of viability: see the listing below.

{"molecule": "N#CC(c1ccnc(OCc2ccc(CN3CCOCC3)cc2)n1)c1nc2ccccc2s1 (stereo unspecified) [Bentamapimod] (max concentration tested 10000 nM)", "percent inhibition of viability": "-0.66%"}
{"molecule": "O=C(Nc1ccc2[nH]nc(-c3ccncc3)c2c1)[C@@H]1CCN(CC(=O)N2CCN(c3ccc(-c4ncccn4)cc3)CC2)C1 (max concentration tested 10000 nM)", "percent inhibition of viability": "-6.91%"}
{"molecule": "O=c1cc(N2CCOCC2)oc2c(-c3ccccc3)cccc12 (max concentration tested 100000 nM)", "percent inhibition of viability": "-1.05%"}
{"molecule": "OC[C@H]1O[C@@H](n2cnc3c2N=CNC[C@H]3O)C[C@@H]1O [Pentostatin] (max concentration tested 10000 nM)", "percent inhibition of viability": "3.31%"}
{"molecule": "CNC(=O)c1ccc(N2C(=S)N(c3ccc(C#N)c(C(F)(F)F)c3)C(=O)C2(C)C)cc1F [Enzalutamide] (max concentration tested 10000 nM)", "percent inhibition of viability": "0.9%"}
{"molecule": "COc1cc(Nc2ncc(F)c(Nc3ccc4c(n3)NC(=O)C(C)(C)O4)n2)cc(OC)c1OC [Tamatinib] (max concentration tested 10000 nM)", "percent inhibition of viability": "-6.76%"}

Values compiled from the supplement of paper PMC5908809.
